Cited source: ChEMBL document CHEMBL3507680

assay: Human HepG2 cell viability assay in 384 well format; assay type: toxicity, cell-based; set-up: dose 125 nL, time 70.5 hour; concentration not given beside the values; settings: HepG2 cells, read-out: Inhibition
Collected cytotoxicity at 70.5 h values appear next to each entry.

molecule	cytotoxicity at 70.5 h / %
Cc1ccc(CN2CCC3(CC2)CC(c2cccnc2)CO3)s1 (stereo unspecified)	2.33
CCCN1CCC(Cc2noc(-c3cc4cccnc4nc3C)n2)CC1	0.578
CCc1ccc2c(c1)C(CCNC(=O)CSC(F)(F)F)C(=O)N2 (stereo unspecified)	-1.42
Cc1cn2nc(N3CCCC3CC(C)(C)C)sc2n1 (stereo unspecified)	-4.57
CC(c1ccccc1F)N(C(=O)CSCC(N)=O)C1CC1 (stereo unspecified)	5.29
CC(C)c1noc(CN2CCN(CCO)CC2)n1	2.45
Cc1cc(C)n(CC2CN(Cc3nc(-c4ccco4)no3)CCO2)n1 (stereo unspecified)	2.57
CC(=O)N1CCC1c1cc(N2CCSCC2)nc(C)n1 (stereo unspecified)	-1.98
CCOC1COC2(CCN(Cc3ccc(C)c(C)c3)CC2)C1 (stereo unspecified)	-11
CCc1cc(CN(C)C(=O)CN2CC3(CCNCC3)OC2=O)on1	-2.42
Cc1nn(CC(=O)N(C)Cc2nncn2C(C)C)c(=O)c2ccccc12	-9.91
CC1CN(C)CCN1Cc1cccc(C(=O)N(C)C)c1 (stereo unspecified)	33.2
COc1ccccc1CN(Cc1cccnc1)Cc1nccs1	9.35
OCCN1CCC(CNCc2ccc(Br)cc2)CC1	-1.11
O=C(C[C@@H]1COC[C@H]2CN(C3CCCC3)C[C@@H]12)N1CCCCO1	-0.83
CC(C)(C)c1cnc(CN2CCC(NC(=O)Nc3ccccc3)CC2)o1	15.4
N#Cc1cccc(CN2CCCC2Cn2cncn2)c1 (stereo unspecified)	-4.98
CC(C)OC(=O)CCNC(=O)Nc1cccc2ncccc12	8.18
COc1ccc(CN2CCCCCC2c2cccs2)c(OC)c1 (stereo unspecified)	-8.21
C=C(C)COc1ccc(C(=O)N(C)C(C)c2ccon2)cc1 (stereo unspecified)	-9.63
COCCCNC(=O)C(C)n1cc(Br)cn1 (stereo unspecified)	16.8
CC[S+]([O-])CCc1nc(CC(C)C)nn1-c1ccc2c(c1)OCCO2 (stereo unspecified)	5.5
COc1cc(NC(=O)c2ccccc2F)c(C(=O)N(C)C)cc1OC	-10.5
O=C(c1cnccn1)N1CCN2C[C@H](OCC3CC3)C[C@H]2C1	4.98
Cc1oc(C)c(C(=O)N2CCCN(Cc3cscn3)CC2)c1C	5.51
COCCN(C(=O)c1ccccn1)c1nc2c(s1)CCc1c-2cnn1C	14.7
O[C@H]1CN(CCOc2ccc(F)cc2)CC[C@@]12CCCO2	-2.62
COC(=O)c1sccc1S(=O)(=O)N1CCC(Oc2ncccc2Cl)CC1	2.59
CC(C)(C)c1ccc(S(=O)(=O)CCN2CCNC(=O)CC2)cc1	-10.4
CC(C)c1noc(OCC(=O)N2CCCCC2C)n1 (stereo unspecified)	-2.39
O=C(CN1C(=O)CCNC1=O)N1CCOC(c2ccc(F)cc2)C1 (stereo unspecified)	-2.25
O=C(c1ccc2c(c1)OCCCO2)N1CCCC(n2cccn2)C1 (stereo unspecified)	0.26
Cc1cc(CN2C[C@@H]3COC[C@@H](C(=O)N4CCCCO4)[C@@H]3C2)oc1C	-6.96
COc1cc(CNC2CCCc3c2cnn3C)cc(OC)c1 (stereo unspecified)	-16.8
COCCO[C@H]1CCN(C(=O)c2ccno2)[C@H]1Cc1ccncc1	-11.9
Cc1ccc(CN2C[C@H](NC(=O)c3nccn3C)[C@H]3OCCC[C@H]32)o1	18.3
